B1: Azoarcus group I ribozyme (parent)
chain: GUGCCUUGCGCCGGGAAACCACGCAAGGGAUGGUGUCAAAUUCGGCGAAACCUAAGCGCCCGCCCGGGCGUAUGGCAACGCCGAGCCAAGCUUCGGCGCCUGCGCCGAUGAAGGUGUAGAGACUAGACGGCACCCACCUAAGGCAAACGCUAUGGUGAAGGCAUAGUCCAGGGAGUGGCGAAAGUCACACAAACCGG

variants of: B1; experiment: reverse-splicing fitness (ratio to wild type); higher = more active; in vitro selection; Mg2+ level not given
Please provide measured reverse-splicing fitness for the entries that follow.
// return just the number, without any unit appended

Please report the recorded reverse-splicing fitness for C82U A111C A120C A145U C150A C169A U176C .
0.00844

Please report the recorded reverse-splicing fitness for A111U A120C A145U C169U U176G .
0.00586

Please report the recorded reverse-splicing fitness for C82U A120U C150A C169A U176A .
0.00373

Please report the recorded reverse-splicing fitness for C82G A145G C169G U176A .
0.0176

Please report the recorded reverse-splicing fitness for A111G A120G A145C C150A C169U .
0.0192

Please report the recorded reverse-splicing fitness for A111G A120G A145U U176G .
0.00952

Please report the recorded reverse-splicing fitness for C82U A111G A120G A145C C150U C169A U176A .
0.0104

Please report the recorded reverse-splicing fitness for A111G A120C A145G C150G U176A .
0.0105

Please report the recorded reverse-splicing fitness for C82G A111U A120U C169A U176G .
0.00169

Please report the recorded reverse-splicing fitness for C82G A111G A120G A145G C150U U176A .
0.0115

Please report the recorded reverse-splicing fitness for C82G A111U A120C C150U C169U .
0.0125

Please report the recorded reverse-splicing fitness for A111C A145U C150A C169U U176A .
0.0176

Please report the recorded reverse-splicing fitness for C82A A111G A120U A145G C169U U176C .
0.00338

Please report the recorded reverse-splicing fitness for C82U A120C A145G C169A U176G .
0.00317

Please report the recorded reverse-splicing fitness for C82U A111U A120G C150A U176C .
0.0164

Please report the recorded reverse-splicing fitness for C82A A111C A145C C169A .
0.00711

Please report the recorded reverse-splicing fitness for A145G C150G C169G U176G .
0.00608

Please report the recorded reverse-splicing fitness for C82U A120U A145C C169G U176A .
0.00282

Please report the recorded reverse-splicing fitness for C82A A111G A120G A145C C169U U176G .
0.00388

Please report the recorded reverse-splicing fitness for C82G A145U C150A C169A U176A .
0.0121

Please report the recorded reverse-splicing fitness for C82U A111G A120G A145G C150A C169A U176A .
0.0174

Please report the recorded reverse-splicing fitness for A120G A145C C150U .
0.166

Please report the recorded reverse-splicing fitness for C82U A120C A145G C150G .
0.0255

Please report the recorded reverse-splicing fitness for C82G A111C A120G A145C C150A C169A .
0.00918

Please report the recorded reverse-splicing fitness for C82U A111U A120U A145C C169G U176A .
0.00238

Please report the recorded reverse-splicing fitness for C82G A120C A145G C150A C169G .
0.00895

Please report the recorded reverse-splicing fitness for C82G A111G A145G C169U U176C .
0.0155

Please report the recorded reverse-splicing fitness for C82A A120C A145U C150U C169G .
0.0103

Please report the recorded reverse-splicing fitness for C82G A111U A120G A145G C169U U176A .
0.0198

Please report the recorded reverse-splicing fitness for C82G A111U A145U C150G U176A .
0.0141

Please report the recorded reverse-splicing fitness for C82G A120C A145U C150U C169A .
0.00933

Please report the recorded reverse-splicing fitness for C82U A145G C150U C169A U176C .
0.0136

Please report the recorded reverse-splicing fitness for C82A A111G A120C A145C C150G C169G U176G .
0.00568

Please report the recorded reverse-splicing fitness for C82U A111U A120U A145U C150G C169G U176A .
0.0029

Please report the recorded reverse-splicing fitness for A120C A145U C150G C169A .
0.00905

Please report the recorded reverse-splicing fitness for C82G A120G A145U C150A C169G .
0.00926

Please report the recorded reverse-splicing fitness for A111G A120G A145U C150U U176C .
0.0782

Please report the recorded reverse-splicing fitness for C82G A111U A145U C150U C169A U176C .
0.0125

Please report the recorded reverse-splicing fitness for A145U C150A C169A U176G .
0.00528

Please report the recorded reverse-splicing fitness for A111U A120G C150A C169U U176A .
0.0295

Please report the recorded reverse-splicing fitness for C82G A111C A120C A145C U176C .
0.0241

Please report the recorded reverse-splicing fitness for C82A A111U A120G A145U U176A .
0.0132

Please report the recorded reverse-splicing fitness for C82G A111U A120C A145U C169G U176C .
0.0213

Please report the recorded reverse-splicing fitness for C82G A111C A120U A145C C150U C169G U176A .
0.00257

Please report the recorded reverse-splicing fitness for C82U A111C A120C A145C C150U C169A .
0.00742

Please report the recorded reverse-splicing fitness for C82A A111C A120G C169U U176A .
0.0144
